Field: Tmax. Provide a value for each of the compounds that follow.
PROCEDURE_SUMMARY: Tmax male Sprague-Dawley rat at 10 mg/kg, iv measured up to 24 hrs by LC-MS/MS analysis
Assay type: ADME, organism-based
ASSAY_CONTEXT: in vivo
Answers are plain numbers, in min.

[
  {
    "SMILES_DATA": "N#Cc1cccc(Oc2nc(-c3cccc(C#N)c3)ncc2C(=O)O)c1",
    "MEASUREMENT_UNIT": "min",
    "Tmax": 4.98
  }
]

The record that follows has no Tmax shown yet.
Recorded Tmax of N#Cc1cccc(-c2nc(C(F)F)c(C(=O)O)n2OCc2csc(N)n2)c1 , please.
4.98

Origin of measurements: ChEMBL document CHEMBL6182910
